TEST SYSTEM: T1, CD134 expressed on the cell surface of HT1080_OX40 cells (human, UniProt P43489 29-277)
T1 construct: whole, on cells; species not restated for the HT1080 transfectant
T1 sequence (looked up): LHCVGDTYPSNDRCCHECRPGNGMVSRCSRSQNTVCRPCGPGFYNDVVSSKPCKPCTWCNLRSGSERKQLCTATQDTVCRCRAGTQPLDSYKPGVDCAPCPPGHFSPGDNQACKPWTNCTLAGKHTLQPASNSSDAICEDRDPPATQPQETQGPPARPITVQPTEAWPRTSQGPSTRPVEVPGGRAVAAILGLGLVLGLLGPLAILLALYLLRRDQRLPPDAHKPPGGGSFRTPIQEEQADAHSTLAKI
ASSAY: HT1080_OX40 cells, imaging; further: test concentration or dose not given here
// reported Cellular binding assay [RFU] per item
Your answer is read as RFU, so omit the unit and give the number.

// known answers, use as guide
>>> numeric_result("P018.S.12.A.A02 (antibody, V domains shown, V regions on human Ig constant parts; also called AB134_51) VH: QSLEESGGRLVTPGTPLTLTCTASGFSLSTYYMTWVRQAPGKGLEWIGDIYVRGGARYANWAKGRFTISRTSTTVDLRITSPTTEDTATYFCAREGLSLWGQGTLVTVSS VL: AQVLTQTASPVSAAVGGTVTINCQSSQSVYKNNRLAWYQQKPGQPPKLLIYETSKLESGVSSRFKGSGSGTQFTLTISGVQSDDAATYYCLGGYDCGSADCNAFGGGTEVVVK")
502
>>> numeric_result("P018.S.11.A.H05 (antibody, V domains shown, V regions on human Ig constant parts; also called AB134_48) VH: QQRLVESGGGLVKPGASLTLTCTASGFSFSSGYDMCWVRQAPGKGLEWVGCIDTATDTIYYASWAPGRFTISKTSSTMVTLQMTSLTAADTATYFCARSVGGVDYAIDLWGPGTLVTVSS VL: AYDMTQTPVSVEVPVGGTVTIKCQASQNIGSRLVWYQQKPGQSPKFLIYYASNLASGVSSRFKGSGSGTQFTLTISDVQSDNAATYYCQQTYSYSDVDDTFGGGTEVVVK")
478
>>> numeric_result("P018.S.02.A.F01 (antibody, V domains shown, V regions on human Ig constant parts; also called AB134_1) VH: QSVEESGGRLVTPGTPLTLTCTVSGFSLSSYAMSWVRQAPGKGLEWIGIISSSGVTYYASWAKGRFTISKTSTTVDLRITGPTTEDTATYFCARDPGYSTGWDYFFRLWGQGTLVTVSS VL: AIKMTQTPASVSAAVGGTVSINCQASEDIESYLAWYQQKPGQPPKLLIYDASDLPSGVPSRFKGSGSGKQFTLTISGVQSDDAATYYCQHGAYTSSSDFFYAFGGGTEVVVK")
498

Next item in the queue.
Lab note: measured Cellular binding assay [RFU] of P018.S.11.A.B04 (antibody, V domains shown, V regions on human Ig constant parts; also called AB134_25) VH: QEQLEESGGDLVKPEGSLTLTCTASGFSFSSAYYMCWVRQAPGKGLEWIACIDAGSSGSTYYASWAKGRFTISKTSSTTVTLQMTSLTAADTATYFCARDGGSTTGYGWLDLWGQGTLVTVSS VL: AVVMTQTASPVSAAVGGTVTINCQASQSIGTNYLSWYQQKPGQPPKLLIYEASNLETGVPSRFKGSGSGTEYSLTISDLESADAATYYCLYSYYSSSSAYTFGGGTEVVVK was 444

Source: patent US20210253725A1
